- experimental system: T1, HCoV229E spike protein (HCoV-229E, UniProt P15423 17-1103)
- T1 chain: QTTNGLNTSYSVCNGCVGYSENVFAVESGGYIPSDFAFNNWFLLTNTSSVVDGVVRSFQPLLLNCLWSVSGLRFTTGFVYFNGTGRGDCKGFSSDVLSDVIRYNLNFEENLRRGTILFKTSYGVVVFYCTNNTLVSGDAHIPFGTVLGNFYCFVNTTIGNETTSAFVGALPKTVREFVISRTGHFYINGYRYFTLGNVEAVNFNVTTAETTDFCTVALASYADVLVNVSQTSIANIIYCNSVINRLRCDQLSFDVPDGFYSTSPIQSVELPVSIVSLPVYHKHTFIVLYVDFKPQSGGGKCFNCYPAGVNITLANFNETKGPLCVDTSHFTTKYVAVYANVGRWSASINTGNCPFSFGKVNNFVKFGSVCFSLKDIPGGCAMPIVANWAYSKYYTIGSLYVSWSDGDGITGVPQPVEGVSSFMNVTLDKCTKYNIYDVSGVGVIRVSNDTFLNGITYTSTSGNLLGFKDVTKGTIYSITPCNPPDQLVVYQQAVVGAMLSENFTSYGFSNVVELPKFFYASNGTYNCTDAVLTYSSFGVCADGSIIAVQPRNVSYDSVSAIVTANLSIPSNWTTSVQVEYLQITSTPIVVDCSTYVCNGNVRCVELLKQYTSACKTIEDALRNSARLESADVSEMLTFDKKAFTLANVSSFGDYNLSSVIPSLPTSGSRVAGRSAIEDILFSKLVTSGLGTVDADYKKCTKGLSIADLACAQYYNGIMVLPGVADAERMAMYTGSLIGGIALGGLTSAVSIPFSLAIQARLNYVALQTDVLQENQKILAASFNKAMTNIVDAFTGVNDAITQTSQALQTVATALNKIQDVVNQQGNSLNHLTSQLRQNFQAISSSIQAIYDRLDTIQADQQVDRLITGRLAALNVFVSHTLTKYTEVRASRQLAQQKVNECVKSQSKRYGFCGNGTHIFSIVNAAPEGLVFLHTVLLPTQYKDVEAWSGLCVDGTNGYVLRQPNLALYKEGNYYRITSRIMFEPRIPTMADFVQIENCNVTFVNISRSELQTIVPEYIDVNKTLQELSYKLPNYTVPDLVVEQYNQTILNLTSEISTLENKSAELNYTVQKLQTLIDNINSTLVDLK
- assay details: ELISA

binder: 7-D7-A (antibody, V domains shown) VH: QVQLKESGPGLVAPSQSLSITCTVSGFSLTSYAISWVRQPPGKGLEWLGVIWPGGGTNYNSALKSRLSISKDNSKSQVFLKMNSLQTDDTAKYYCARTGYYFDYWGQGTTLTVSS VL: QLILTQSPAIMSASPGEKVTMTCSASLSVNYMYWFQQKPGTSPKRWIHDTSKLASGVPARFSGSGSGTSYSLTISSMEAEDAATYYCQQWSSNPPMYTFGGGTKLEIK
EC50 [nM]: 0.13
//
binder: 1-L10-A (antibody, V domains shown) VH: EVKLEESGGGLVQPGGSMKLSCVASGFTFNNYWMNWVRQSPEKGLEWVAQMRLKSDNYATHYAESVKGRFTISRDDSKSSVYLQMNNLRAEDTGIYYCIEGYWTYWGQGTLVTVSA VL: QIVLTQSPAIMSASLGERVTMTCTASSSVSSSYLHWYQQKPGSSPKLWIYSTSNLASGVPARFSGNGSGTSYSLTISSMEAEDAATYYCLQYHRSPPYTFGGGTKLEIK
EC50 [nM]: 0.12
//
binder: 2-G20-A (antibody, V domains shown) VH: EVQLQQSGPELVKPGASVKMSCKASGYTFPSYVLHWVKQKPGQGLEWIGYIYPYNDGTNYNEKFKGKATLTSDKSSSTAYMELSSLTSEDSAVYYCARGDYGDSAWFPYWGQGTLVTVSA VL: DIVLTQSPASLAVSLGQRATISCRASKSVSTSGYSYMHWYQQKPGQPPKLLIYLASNLKSGVPARFSGGGSGTDFTLNIHPVEEEDAATYYCQLSRELPWTFGGGTKLEIK
EC50 [nM]: 0.1
